- ASSAY_INFO: Volume of distribution at steady state in rat at 1 mg/kg, iv measured upto 24 hrs by LC-MS/MS analysis
- Assay type: ADME, organism-based
- RUN_PARAMETERS: in vivo, read-out: Vdss
READOUT_LABEL: Vd

1. Nc1nc2c(ncn2[C@@H]2O[C@@H]3CO[P@@](=O)(S)O[C@H]4C[C@H](Nc5ccncn5)C[C@@H]4CO[P@@](=O)(S)O[C@@H]2[C@@H]3O)c(=O)[nH]1 4.36 L/kg
2. Nc1nc2c(ncn2[C@@H]2O[C@@H]3CO[P@@](=O)(S)O[C@H]4C[C@H](Oc5ccncn5)C[C@@H]4CO[P@@](=O)(S)O[C@@H]2[C@@H]3O)c(=O)[nH]1 0.419 L/kg
